Tested on: RPMI-8226 leukemia
Experiment: NCI tumour cell line growth inhibition, 48 h
Reported TGI values are given for each entry in this list.
Measure Name: TGI

>>> print(df.to_string())
                                    molecule  measure_name  obs_value
 0  Cc1cc(Cl)ccc1NC(=O)CCCC(=O)C(C(=O)c1ccccc1)c1ccccc1 (stereo unspecified)           TGI   > 100 µM
 1  O=C(Nc1nc(C23CC4CC(CC(C4)C2)C3)cs1)c1cc2cc([N+](=O)[O-])ccc2oc1=O           TGI   > 100 µM
 2     Cc1nn(-c2ccccn2)c2c1C(SC#N)=C(C=O)CC2           TGI      63 µM
 3  COc1ccc(NS(=O)c2cccc(C)c2)cc1 (stereo unspecified)           TGI   > 100 µM
 4  CC(=O)OCC(OC(C)=O)C(OC(C)=O)C(OC(C)=O)C(=O)CNn1c(-c2ccccc2Cl)nc2ccc(Br)cc2c1=O (stereo unspecified)           TGI   > 100 µM
 5  CSc1ccccc1P(CCP(c1ccccc1SC)c1ccccc1SC)c1ccccc1SC           TGI  > 88.1 µM
 6  CCCCCCc1cn([C@H]2C[C@H](O)[C@@H](CO)O2)c(=O)[nH]c1=O           TGI   > 100 µM
 7  C=C(C(=O)OC)[C@H]1CC/C(C)=C/CC/C(C)=C/CC[C@@]2(C)O[C@@H]2C1           TGI    32.8 µM
 8  C=C1C(=O)O[C@H]2C3C(=C(C)CC[C@@H]12)C(=O)[C@@H]1OC31C (stereo partly specified)           TGI    3.62 µM
 9  COc1cccc(C2CC(=O)c3cccn32)c1 (stereo unspecified)           TGI   > 100 µM
10  O=C1NC(O)CCN1C1CC(O)C(CO)O1 (stereo unspecified)           TGI   > 100 µM
11   O=S(=O)(O)c1ccc(Nc2ccnc3cc(Cl)ccc23)cc1           TGI   > 100 µM
12  N#Cc1c(NCc2ccccc2)nc(NCc2ccccc2)c(C#N)c1-c1cccc(O)c1           TGI    22.6 µM
13  CCCCCCCCC[n+]1cccc(C2C(C(=O)OCC)=C(C)NC(C)=C2C(=O)OCC)c1           TGI    5.28 µM
14  CCCCN(CCCC)C(=O)C(=O)CC(=O)/C=C/c1ccccc1           TGI   > 100 µM
15  FC(F)(F)c1cc(NC2=NCCN=C(Nc3cc(C(F)(F)F)cc(C(F)(F)F)c3)SS2)cc(C(F)(F)F)c1           TGI     8.8 µM
16      O=c1c(-c2ccc(O)cc2)coc2cc(O)cc(O)c12           TGI   > 100 µM
17        O=C(O)c1cc2c(c3ccsc13)-c1ccccc1CC2           TGI   > 100 µM
18  CC(C)=CCC/C(C)=C/[C@H]1OC(=O)CC12C[C@H](O)C=CC2=O (stereo partly specified)           TGI   0.594 µM
19  O=C1C(=Cc2ccccc2[N+](=O)[O-])N=C(c2ccccc2)N1n1c(-c2ccccc2)nc2ccccc2c1=O           TGI    66.6 µM
20  O=C1OC(c2ccccc2)=N/C1=C/N1CCCC1C(=O)O (stereo unspecified)           TGI   > 100 µM

###

Tested on: SK-MEL-5 melanoma
Assay: NCI tumour cell line growth inhibition, 48 h
Measure Name: TGI

>>> df
                                    compound  measure_name     obs_value
 0        O=C(c1ccccc1)c1ccccc1C(=O)c1ccccc1           TGI       67.1 µM
 1        O=C(O)c1cc2c(c3ccsc13)-c1ccccc1CC2           TGI      > 100 µM
 2  O=C1OC2C=CC1C1(CCOC1=O)C2 (stereo unspecified)           TGI      > 100 µM
 3  CCC1OC(/C(C)=C/C(C)/C=C/C2C(C)C2/C=C/C2OC(CC(=O)O)CC(O)C2O)CC=C1C (stereo unspecified)           TGI       > 50 µM
 4  CCOC(=O)c1cn(C)nc1N/C(C)=C\C(=O)c1ccccc1           TGI      > 100 µM
 5  CSC1NNC2(C(=O)N1)c1ccccc1-c1ccccc12 (stereo unspecified)           TGI       > 10 µM
 6     CC1(C)CC(=O)C(=CN2C(=O)CNC2=S)C(=O)C1           TGI      > 100 µM
 7  COC(=O)C1[C@H](C(=O)OC)C1(Br)CBr (stereo partly specified)           TGI      > 100 µM
 8  CCCC(=O)OC1CC(n2cc(F)c(=O)[nH]c2=O)OC1CO (stereo unspecified)           TGI       1.84 µM
 9  C=C1CC(OC)(C(O)C(=O)N[C@H]2OCO[C@H]3C2O[C@H](C[C@H](O)COC)C(C)(C)C3OC)O[C@H](C)[C@@H]1C (stereo partly specified)           TGI  > 0.00772 µM
10  N#Cc1c(C#N)c(-c2ccccc2)n(/N=C\c2ccccc2)c1N           TGI       32.8 µM
11  N=C1C(c2nc(-c3ccc(Br)cc3)cs2)=C(O)CN1CC1CCCO1 (stereo unspecified)           TGI      > 100 µM
12   Cc1nn2c(/C=C3\C(=O)Nc4ccccc43)c(C)nc2s1           TGI      > 100 µM
13  COC(=O)C12C3C4C1C1C2C3C41C(=O)N(C(C)C)C(C)C (stereo unspecified)           TGI      > 100 µM
14  Cc1ccc2cnc(N)c(C#Cc3cncc(C(=O)Nc4ccc(CN5CCN(C)CC5)c(C(F)(F)F)c4)c3)c2c1           TGI       1.51 µM
15  CCOC(=O)C[n+]1ccc2c([nH]c3cc(OC)ccc32)c1C           TGI      > 100 µM
16  Cc1cccc(C(O)c2cccnc2)c1O (stereo unspecified)           TGI      > 100 µM
17  CC(=O)NS(=O)(=O)c1ccc(-n2nc(-c3ccccc3)cc2C2=CC(=O)C=CC2=O)cc1           TGI      > 100 µM
18  O=C(Nc1nc(C23CC4CC(CC(C4)C2)C3)cs1)c1cc2cc([N+](=O)[O-])ccc2oc1=O           TGI       96.9 µM
19  COc1cccc2c1[C@]1(O)C(O)CCCC21 (stereo partly specified)           TGI      > 100 µM
20  c1cc2ccc1CNCCN1CCNCc3ccc(cc3)Oc3ccc(cc3)CNCCN(CCNCc3ccc(cc3)O2)CCNCc2ccc(cc2)Oc2ccc(cc2)CNCC1           TGI       5.19 µM

###

Tested on: SF-295 CNS
Assay: NCI tumour cell line growth inhibition, 48 h
Listed here are compounds together with their documented TGI.
Measure Name: TGI

                                    compound  measure_name  obs_value
 0  COc1cccc2ccc3c(c12)C(=O)OC31CCc2c(C)cccc21 (stereo unspecified)           TGI  > 46.4 µM
 1  Cc1ccc2cnc(N)c(C#Cc3cncc(C(=O)Nc4ccc(CN5CCN(C)CC5)c(C(F)(F)F)c4)c3)c2c1           TGI    1.57 µM
 2  C/C(=C\c1ccccc1)C(=O)NCc1ccc(C(=O)NCCc2c[nH]c3ccccc23)cc1           TGI   > 100 µM
 3         COc1ccc(/C=C/c2cnc3ccccc3n2)cc1OC           TGI   > 100 µM
 4  CCC1OC(/C(C)=C/C(C)/C=C/C2C(C)C2/C=C/C2OC(CC(=O)O)CC(O)C2O)CC=C1C (stereo unspecified)           TGI    > 50 µM
 5     CC1(C)CC(=O)C(=CN2C(=O)CNC2=S)C(=O)C1           TGI   > 100 µM
 6  O=C(Nc1ccc(-c2ccnc(Nc3ccc(N4CCOCC4)cc3)n2)cc1)C1CCCN1 (stereo unspecified)           TGI    20.4 µM
 7                  Cc1nnc(CC#N)n1NC(=O)CC#N           TGI   > 100 µM
 8  N#Cc1c(NCc2ccccc2)nc(NCc2ccccc2)c(C#N)c1-c1cccc(O)c1           TGI    13.2 µM
 9  CCOC(=O)C1=C(C)N(c2ccc(C)cc2)C2(O)C=CC(=O)C3=C(O)c4ccccc4C(=O)C312 (stereo unspecified)           TGI   > 100 µM
10  c1ccc2c(c1)c1c3n2-c2cc(on2)C3CCC1 (stereo unspecified)           TGI   > 100 µM
